studyTarget: T1, OC2R479 (human, UniProt O95948 330-485, R479A)
T1 sequence: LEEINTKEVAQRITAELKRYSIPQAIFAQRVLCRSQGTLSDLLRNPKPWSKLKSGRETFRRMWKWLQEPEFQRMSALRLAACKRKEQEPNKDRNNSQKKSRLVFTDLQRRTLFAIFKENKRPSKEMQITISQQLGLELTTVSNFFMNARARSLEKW
assayProtocol: ITC; ITC: 1X PBS pH 7.4, 0.005% Tween-20, 1 mM beta-ME, 25 C (also 12 and 30 C for heat capacity); BLI: 1X PBS, 0.5 mM TCEP, 0.005% Tween-20
testParameters: protein: recombinant; tags: His6 removed by TEV
property: Kd (nM)
# value in nM; strip the unit string

So what's the measured Kd for this one? PEG10 promoter DNA (12mer duplex) (dsDNA) DNA 1: AGATCGATTTGC DNA 2: GCAAATCGATCT
6
